Entry source: ChEMBL document CHEMBL1155492

- TGT: Pyruvate kinase PKM (Homo sapiens) (UniProt P14618)
- Sequence (P14618 2-531 limits assumed): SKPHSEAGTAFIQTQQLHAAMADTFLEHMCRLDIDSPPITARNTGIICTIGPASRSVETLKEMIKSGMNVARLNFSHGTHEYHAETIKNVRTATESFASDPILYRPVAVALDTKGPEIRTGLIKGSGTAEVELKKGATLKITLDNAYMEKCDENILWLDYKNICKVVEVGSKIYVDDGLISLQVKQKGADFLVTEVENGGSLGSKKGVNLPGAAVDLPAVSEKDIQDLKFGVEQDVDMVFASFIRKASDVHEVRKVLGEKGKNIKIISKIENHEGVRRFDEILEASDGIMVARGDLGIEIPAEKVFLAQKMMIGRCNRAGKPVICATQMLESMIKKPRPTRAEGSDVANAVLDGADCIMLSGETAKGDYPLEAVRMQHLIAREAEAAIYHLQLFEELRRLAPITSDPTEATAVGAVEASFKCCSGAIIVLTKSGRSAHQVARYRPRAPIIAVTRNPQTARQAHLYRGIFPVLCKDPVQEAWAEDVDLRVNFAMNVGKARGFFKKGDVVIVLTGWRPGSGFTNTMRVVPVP
- MEASUREMENT_NOTES: Maximum activation of human PKM2 assessed as ATP product formation at 57 uM after 1 hr by luminescent pyruvate kinase-luciferase coupled assay relative to fructose-1,6-bis-phosphate
Active and inactive are the calls of the source. No cut-off for these calls is given here.
EXPERIMENTAL_READOUT: Activity

Examples from the recorded data:
INSERT INTO results (compound, test_result) VALUES
  ('Cc1cc2c(s1)c1cnn(Cc3c(F)cccc3F)c(=O)c1n2C', '94%'),
  ('Cc1cc2c(s1)c1cnn(Cc3cccc(F)c3F)c(=O)c1n2C', '73%'),
  ('COc1cccc(Cn2ncc3c4sc([S+](C)[O-])cc4n(C)c3c2=O)c1 (stereo not given)', '99%'),
  ('Cc1cc2c(s1)c1cnn(Cc3ccccc3F)c(=O)c1n2C(C)C', 'inactive'),
  ('Cc1cc2c(s1)c1cnn(Cc3ccc(C(F)(F)F)cc3F)c(=O)c1n2C', '59%');

Enquiry: What Activity appears in the records for this compound with Pyruvate kinase PKM (Homo sapiens) (UniProt P14618)? Cn1c2cc(S(C)(=O)=O)sc2c2cnn(Cc3ccccc3F)c(=O)c21
Return: inactive

Enquiry: Now the compound Cc1cc2c(s1)c1cnn(-c3ccccc3)c(=O)c1n2C
Return: inactive

Enquiry: Now the compound Cn1c2cc(C=O)sc2c2cnn(Cc3ccccc3F)c(=O)c21
Return: 100%

* * *

- TGT: Pyruvate kinase PKM (Homo sapiens) (UniProt P14618)
- MEASUREMENT_NOTES: Activation of PKM1 assessed as ATP product formation by luminescent pyruvate kinase-luciferase coupled assay
Activity calls are given as the source filed them. The rule behind the calls is not given here.
EXPERIMENTAL_READOUT: Activity

Examples from the recorded data:
INSERT INTO assay_data (compound_structure, test_result) VALUES
  ('Cc1cc2c(s1)c1cnn(-c3ccccc3)c(=O)c1n2C', 'inactive'),
  ('CC(C)c1cc2c(s1)c1cnn(Cc3ccccc3F)c(=O)c1n2C', 'inactive'),
  ('Cc1cc2c(s1)c1cnn(Cc3ccc(Cl)cc3)c(=O)c1n2C', 'inactive'),
  ('Cc1cc2c(s1)c1cnn(Cc3c(F)cccc3F)c(=O)c1n2C', 'inactive'),
  ('Cc1cc2c(s1)c1cnn(Cc3cccc(F)c3F)c(=O)c1n2C', 'inactive');

Enquiry: What Activity appears in the records for this molecule with Pyruvate kinase PKM (Homo sapiens) (UniProt P14618)? Cc1cc2c(s1)c1cnn(Cc3ccccc3F)c(=O)c1n2C
Return: inactive

Enquiry: Now the molecule Cc1cc2c(s1)c1cnn(Cc3ccccc3Cl)c(=O)c1n2C
Return: inactive

Enquiry: Now the molecule Cc1cc2c(s1)c1cnn(Cc3ccc(F)cc3F)c(=O)c1n2C
Return: inactive

Enquiry: Now the molecule Cc1ccc(Cn2ncc3c4sc(C)cc4n(C)c3c2=O)c(F)c1
Return: inactive

Enquiry: Now the molecule CCc1cc2c(s1)c1cnn(Cc3ccccc3F)c(=O)c1n2C
Return: inactive

Enquiry: Now the molecule Cc1cc2c(s1)c1cnn(Cc3c(F)cccc3Cl)c(=O)c1n2C
Return: inactive

* * *

- TGT: Pyruvate kinase PKM (Homo sapiens) (UniProt P14618)
- MEASUREMENT_NOTES: Activation of PKM1 assessed as pyruvate formation by fluorescent pyruvate kinase-lactate dehydrogenase coupled assay
The source made the active and inactive calls. The calls are words filed in the database; no cut-off is given here.
EXPERIMENTAL_READOUT: Activity

INSERT INTO measurements (molecule, test_result) VALUES
  ('Cn1c2cc([S+](C)[O-])sc2c2cnn(Cc3cccc(O)c3)c(=O)c21 (stereo unspecified)', 'inactive'),
  ('CCn1c2cc(C)sc2c2cnn(Cc3ccccc3F)c(=O)c21', 'inactive'),
  ('CC(=O)Nc1cc2c(s1)c1cnn(Cc3ccccc3F)c(=O)c1n2C', 'inactive'),
  ('Cc1cc2c(s1)c1cnn(Cc3cccc(C)c3F)c(=O)c1n2C', 'inactive'),
  ('COc1ccc(Cn2ncc3c4sc(C)cc4n(C)c3c2=O)cc1', 'inactive'),
  ('Cc1cc2c(s1)c1cnn(-c3ccccc3)c(=O)c1n2C', 'inactive'),
  ('Cn1c2cc(C#N)sc2c2cnn(Cc3ccccc3F)c(=O)c21', 'inactive'),
  ('Cc1cc2c(s1)c1cnn(Cc3ccc(Cl)cc3)c(=O)c1n2C', 'inactive');

Enquiry: Requested field: Activity. Item: Cc1cc2c(s1)c1cnn(Cc3ccc(C(F)(F)F)cc3F)c(=O)c1n2C
Return: inactive

Enquiry: Now the molecule CC(C)c1cc2c(s1)c1cnn(Cc3ccccc3F)c(=O)c1n2C
Return: inactive

Enquiry: Now the molecule Cn1c2cc(S(C)(=O)=O)sc2c2cnn(Cc3ccccc3F)c(=O)c21
Return: inactive
